Test system: 786-0 renal
Assay: NCI-60 one-dose screen, 48 h
Settings: 10 µM unless noted
About 83,000 compounds went through this panel and 20% of them were active in at least one assay; those are over-represented in the sample as a whole. Activity calls are given as the source filed them. Rule for the calls: active = growth percent below 10; inactive = the rest.
Write down one outcome, taken from active, inactive

COc1cc(/C=C/C(=O)c2ccc(S(=O)(=O)NCCNc3nc(N(C)C)nc(N4CCOCC4)n3)cc2)cc(OC)c1OC
active
CCCCCCCOc1ccc(S(=O)(=O)Nc2ccc(C)c(F)c2C(=O)O)cc1
inactive
CC1CCc2c(sc3nc(SCC(=O)c4cccc([N+](=O)[O-])c4)n(-c4ccccc4)c(=O)c23)C1 (stereo unspecified)
inactive

Req: Query: recorded result category for "O=C1N/C(=N\c2nccs2)S/C1=C\c1ccc([N+](=O)[O-])cc1" in this test
Resp: inactive

Req: Now consider "COC(=O)CSC1=C(C)C(=O)C(OC)=C(OC)C1=O" and answer again.
Resp: inactive

Req: Lookup "O=C1NC(=NC23CC4CC(CC(C4)C2)C3)N/C1=C\c1ccc2ncccc2c1"
Resp: active

Req: How about "O=C(N/N=C/c1occc1Br)c1[nH]c2ccc(Br)cc2c1-c1ccccc1" ?
Resp: active

Req: "Nc1nnc(-c2cncc(Br)c2)c(-c2c[nH]c3ccc(Cl)cc23)n1" , same question.
Resp: inactive

Req: Also, "N#Cc1c(NC(=O)N2CCOCC2)n(-c2ccc(OC(F)(F)F)cc2)c2cc(F)ccc12" please.
Resp: inactive

Req: Same for "O=C1/C(=C/c2cnc(-c3ccccc3)s2)SC(=S)N1Cc1ccc2c(c1)OCO2"
Resp: inactive

Req: Record: "O=C(N/N=C/c1ccc(Br)o1)c1[nH]c2ccc(Br)cc2c1-c1ccccc1"
Resp: active

Source: PubChem BioAssay (NCI)
